Target: PI3Kδ (p110δ/p85α) Recombinant Human Protein (Homo sapiens (Human), UniProt O00329)
Sequence (O00329 whole entry): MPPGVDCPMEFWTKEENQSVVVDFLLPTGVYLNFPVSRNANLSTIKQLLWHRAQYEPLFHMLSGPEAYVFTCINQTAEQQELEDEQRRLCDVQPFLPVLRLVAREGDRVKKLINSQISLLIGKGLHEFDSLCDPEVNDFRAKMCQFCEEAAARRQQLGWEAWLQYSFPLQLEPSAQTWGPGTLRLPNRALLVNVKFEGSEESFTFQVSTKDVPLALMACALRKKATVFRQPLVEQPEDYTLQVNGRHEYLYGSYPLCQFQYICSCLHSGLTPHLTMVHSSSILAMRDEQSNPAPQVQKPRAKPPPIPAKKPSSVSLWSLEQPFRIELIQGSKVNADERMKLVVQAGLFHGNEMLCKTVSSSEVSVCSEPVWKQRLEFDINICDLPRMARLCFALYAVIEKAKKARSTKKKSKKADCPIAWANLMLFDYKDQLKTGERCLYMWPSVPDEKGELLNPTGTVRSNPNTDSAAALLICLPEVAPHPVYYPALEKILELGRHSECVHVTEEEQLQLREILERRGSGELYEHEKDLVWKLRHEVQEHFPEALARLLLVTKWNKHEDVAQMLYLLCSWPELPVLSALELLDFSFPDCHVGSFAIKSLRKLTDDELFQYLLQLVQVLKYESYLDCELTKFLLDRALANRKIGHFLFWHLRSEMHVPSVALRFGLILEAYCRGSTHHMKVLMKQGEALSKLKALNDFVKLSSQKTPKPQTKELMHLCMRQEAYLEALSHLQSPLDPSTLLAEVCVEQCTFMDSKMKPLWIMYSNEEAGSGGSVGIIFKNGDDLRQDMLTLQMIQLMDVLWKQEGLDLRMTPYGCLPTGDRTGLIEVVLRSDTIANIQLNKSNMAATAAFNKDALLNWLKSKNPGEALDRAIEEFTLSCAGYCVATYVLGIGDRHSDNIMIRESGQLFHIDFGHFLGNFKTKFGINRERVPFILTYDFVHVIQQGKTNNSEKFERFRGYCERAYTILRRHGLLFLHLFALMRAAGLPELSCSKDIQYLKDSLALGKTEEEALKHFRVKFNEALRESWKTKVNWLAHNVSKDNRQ
Sequence (P27986 whole entry partner): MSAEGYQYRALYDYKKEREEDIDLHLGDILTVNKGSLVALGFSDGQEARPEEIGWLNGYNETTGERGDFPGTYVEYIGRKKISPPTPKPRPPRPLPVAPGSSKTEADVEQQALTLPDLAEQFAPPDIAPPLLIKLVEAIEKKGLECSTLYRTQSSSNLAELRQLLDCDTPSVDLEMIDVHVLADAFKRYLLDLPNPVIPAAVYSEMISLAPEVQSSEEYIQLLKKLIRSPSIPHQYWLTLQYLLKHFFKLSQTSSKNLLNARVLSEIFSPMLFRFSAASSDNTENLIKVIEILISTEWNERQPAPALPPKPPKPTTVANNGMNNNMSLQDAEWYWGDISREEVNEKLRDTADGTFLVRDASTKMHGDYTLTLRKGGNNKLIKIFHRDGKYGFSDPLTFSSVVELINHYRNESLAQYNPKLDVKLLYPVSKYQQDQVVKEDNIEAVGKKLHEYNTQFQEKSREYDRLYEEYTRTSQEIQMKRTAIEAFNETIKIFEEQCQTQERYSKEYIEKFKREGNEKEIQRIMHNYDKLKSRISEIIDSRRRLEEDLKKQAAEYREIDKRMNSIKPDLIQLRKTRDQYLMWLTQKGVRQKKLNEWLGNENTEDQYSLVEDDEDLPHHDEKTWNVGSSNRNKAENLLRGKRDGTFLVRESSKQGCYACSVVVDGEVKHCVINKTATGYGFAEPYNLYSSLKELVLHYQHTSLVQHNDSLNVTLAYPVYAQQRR
Assay: PI3Kδ scintillation proximity assay
Format: biochemical
Settings: 2 μM ATP, 20 μM PIP2
Where a name gives a salt, the structure may show the parent alone.
Measured IC50, listed per entry for reference.

These recorded examples may help you get a feel for the data.
CC(NC(=O)c1c(N)nn2cccnc12)c1cc(Cl)c2c(Cl)cnn2c1N1CCS(=O)(=O)C(C)C1 (stereo not shown) [Example 112A, trifluoroacetate] | < 0.1 µM
CC1CCN(c2c(C(C)NC(=O)c3c(N)nn4cccnc34)cc(Cl)c3cncn23)CC1 (stereo not shown) [Example 69, bistrifluoroacetate] | < 0.5 µM
CNC(=O)C1CCN(c2c(C(C)NC(=O)c3c(N)nn4cccnc34)cc(Cl)c3cn[nH]c23)CC1 (stereo not shown) [Example 107, trifluoroacetate] | < 0.5 µM
CC(NC(=O)c1c(N)nn2cccnc12)c1cc(Cl)c2cn[nH]c2c1N1CCC(C(=O)N(C)C)CC1 (stereo not shown) [Example 108, trifluoroacetate] | < 0.5 µM
CC(NC(=O)c1c(N)nn2cccnc12)c1cc(Cl)c2cncn2c1N1CCC(C#N)C1 (racemic) [Example 32, trifluoroacetate salt] | < 0.1 µM

Per the reported PI3Kδ (p110δ/p85α) Recombinant Human Protein (Homo sapiens (Human), UniProt O00329) data, COCCOc1c(C(C)NC(=O)c2c(N)nn3cccnc23)cc(Cl)c2cn[nH]c12 (stereo not shown) [Example 81, trifluoroacetate] has IC50 of < 0.1 µM

Per the reported PI3Kδ (p110δ/p85α) Recombinant Human Protein (Homo sapiens (Human), UniProt O00329) data, CC(NC(=O)c1c(N)nn2cccnc12)c1cc(Cl)c2cncn2c1N1CCC(C#N)CC1 (stereo not shown) [Example 153, trifluoroacetate salt] has IC50 of < 0.1 µM

Per the reported PI3Kδ (p110δ/p85α) Recombinant Human Protein (Homo sapiens (Human), UniProt O00329) data, CC(NC(=O)c1c(N)nn2cccnc12)c1cc(Cl)c2cn[nH]c2c1OCCCN (stereo not shown) [Example 64, bis(trifluoroacetate)] has IC50 of < 0.5 µM

Per the reported PI3Kδ (p110δ/p85α) Recombinant Human Protein (Homo sapiens (Human), UniProt O00329) data, CC(NC(=O)c1c(N)nn2cccnc12)c1cc(Cl)c2cncn2c1N1CCCC(F)C1 (single isomer, unassigned) [Example 73B] has IC50 of < 0.1 µM

Per the reported PI3Kδ (p110δ/p85α) Recombinant Human Protein (Homo sapiens (Human), UniProt O00329) data, CNC(=O)C1CCN(c2c(C(C)NC(=O)c3c(N)nn4cccnc34)cc(Cl)c3cn[nH]c23)C1 (single isomer, unassigned) [Example 103A, trifluoroacetate] has IC50 of < 0.5 µM

Per the reported PI3Kδ (p110δ/p85α) Recombinant Human Protein (Homo sapiens (Human), UniProt O00329) data, CCOc1c(C(C)NC(=O)c2c(N)nn3ccc(-c4cncc(CO)c4)nc23)cc(Cl)c2cn[nH]c12 (stereo not shown) has IC50 of < 0.1 µM

Per the reported PI3Kδ (p110δ/p85α) Recombinant Human Protein (Homo sapiens (Human), UniProt O00329) data, CC(NC(=O)c1c(N)nn2cccnc12)c1cc(Cl)c2cncn2c1N1CCC(C)(O)CC1 (stereo not shown) [Example 87, trifluoroacetate] has IC50 of < 0.5 µM

Per the reported PI3Kδ (p110δ/p85α) Recombinant Human Protein (Homo sapiens (Human), UniProt O00329) data, COC1CC=C(c2c(C(C)NC(=O)c3c(N)nn4cccnc34)cc(Cl)c3cn[nH]c23)CC1 (stereo not shown) [Example 100, trifluoroacetate] has IC50 of < 0.5 µM
